# ASSAYED SYSTEM: VLA-4 (Homo sapiens, UniProt P05556+P13612)
# Construct: host or cells: Jurkat clone E6-1
# Sequence (P13612 34-1032): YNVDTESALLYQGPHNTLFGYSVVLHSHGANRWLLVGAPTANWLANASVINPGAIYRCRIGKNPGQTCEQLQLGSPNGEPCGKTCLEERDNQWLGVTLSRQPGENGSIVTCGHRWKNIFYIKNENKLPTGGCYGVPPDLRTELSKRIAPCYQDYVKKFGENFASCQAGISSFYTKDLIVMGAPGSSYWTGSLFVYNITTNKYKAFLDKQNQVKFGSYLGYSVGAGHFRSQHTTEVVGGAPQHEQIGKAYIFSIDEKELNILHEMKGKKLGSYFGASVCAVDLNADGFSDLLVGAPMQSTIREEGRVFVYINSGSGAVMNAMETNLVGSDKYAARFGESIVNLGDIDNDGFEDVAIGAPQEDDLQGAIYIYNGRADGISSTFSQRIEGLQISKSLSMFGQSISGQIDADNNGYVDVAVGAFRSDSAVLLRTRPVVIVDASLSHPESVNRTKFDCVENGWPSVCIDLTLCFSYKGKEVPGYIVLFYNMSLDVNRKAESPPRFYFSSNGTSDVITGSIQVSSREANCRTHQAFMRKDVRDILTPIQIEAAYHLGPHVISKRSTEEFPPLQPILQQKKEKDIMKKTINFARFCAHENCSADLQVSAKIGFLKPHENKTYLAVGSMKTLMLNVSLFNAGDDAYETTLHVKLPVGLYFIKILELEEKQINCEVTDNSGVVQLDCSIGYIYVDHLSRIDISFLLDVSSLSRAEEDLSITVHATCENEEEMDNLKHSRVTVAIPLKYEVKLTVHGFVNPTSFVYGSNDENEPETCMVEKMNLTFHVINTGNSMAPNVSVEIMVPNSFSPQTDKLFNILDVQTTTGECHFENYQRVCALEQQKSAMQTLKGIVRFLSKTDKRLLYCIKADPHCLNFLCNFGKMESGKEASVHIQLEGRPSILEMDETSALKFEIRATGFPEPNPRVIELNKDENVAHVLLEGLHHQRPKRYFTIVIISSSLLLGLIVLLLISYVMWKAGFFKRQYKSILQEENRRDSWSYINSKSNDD
# Sequence (P05556 21-798): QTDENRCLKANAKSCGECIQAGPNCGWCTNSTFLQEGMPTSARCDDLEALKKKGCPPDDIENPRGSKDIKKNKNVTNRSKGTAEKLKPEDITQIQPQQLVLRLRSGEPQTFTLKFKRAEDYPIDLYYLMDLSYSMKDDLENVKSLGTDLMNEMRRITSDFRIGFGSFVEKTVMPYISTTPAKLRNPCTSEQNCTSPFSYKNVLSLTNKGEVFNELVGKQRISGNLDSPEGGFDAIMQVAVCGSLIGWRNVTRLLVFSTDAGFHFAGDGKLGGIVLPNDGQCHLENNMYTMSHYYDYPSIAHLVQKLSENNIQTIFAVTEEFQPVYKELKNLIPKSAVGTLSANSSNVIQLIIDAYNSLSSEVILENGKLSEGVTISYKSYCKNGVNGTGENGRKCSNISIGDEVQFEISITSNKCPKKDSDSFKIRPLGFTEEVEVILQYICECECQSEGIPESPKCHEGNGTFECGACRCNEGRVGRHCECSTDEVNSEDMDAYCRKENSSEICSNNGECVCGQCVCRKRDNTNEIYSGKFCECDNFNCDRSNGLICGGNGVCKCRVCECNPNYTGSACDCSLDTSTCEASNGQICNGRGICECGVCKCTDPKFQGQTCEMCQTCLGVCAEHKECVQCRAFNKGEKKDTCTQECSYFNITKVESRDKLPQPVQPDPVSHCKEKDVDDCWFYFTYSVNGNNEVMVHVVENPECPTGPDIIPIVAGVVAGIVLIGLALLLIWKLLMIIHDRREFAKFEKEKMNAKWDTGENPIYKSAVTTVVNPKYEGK
# TEST METHOD NOTES: Adhesion of Jurkat cells to immobilized VCAM-1 (domains 1-3)
# Type: cell-based
# CONDITION PARAMETERS: adhesion of CFSE-labeled Jurkat cells to recombinant human VCAM-1 (domains 1-3) coated plates; compounds as yielded by solid phase synthesis, purity about 40-90%; read-out: IC50
# Experimental: In Vitro Assay: Adhesion of Jurkat Cells to Immobilized VCAM-1 (Domains 1-3). Preparation of Fluorescence Labeled Jurkat Cells: […] Complementary DNA (cDNA) encoding 7-domain form of VCAM-1 (GenBank accession #M60335) was obtained using Rapid-Screen™ cDNA library panels (OriGene Technologies, Inc) at Takara Gene Analysis Center (Shiga, Japan). […] The recombinant virus was amplified by infection to High-Five™ insect cells for 5-6 days, and virus titer was determined by plaque assay. […]
ASSAY ENDPOINT: IC50

COMPOUND: CN(C)CCCNc1ncnc(N2CCCC(C(=O)N[C@@H](Cc3ccc(NC(=O)N4CCN(c5ccccc5)CC4)cc3)C(=O)O)C2)c1F (stereo partly drawn) [Example 5.15]
ASSAYED SYSTEM: VLA-4 (Homo sapiens, UniProt P05556+P13612)
RESULT: 2000 to 10000 nM
//
COMPOUND: CN1CCN(C(=O)Nc2ccc(C[C@H](NC(=O)C3CCCN(c4ncnc(N5CCN(c6ccccc6)CC5)c4F)C3)C(=O)O)cc2)CC1 (stereo partly drawn) [Example 5.14]
ASSAYED SYSTEM: VLA-4 (Homo sapiens, UniProt P05556+P13612)
RESULT: 2000 to 10000 nM
//
COMPOUND: COc1ccc(Cl)cc1S(=O)(=O)N1CCCC(C(=O)N[C@@H](Cc2ccc(NC(=O)N3CCN(c4ccccc4)CC3)cc2)C(=O)O)C1 (stereo partly drawn) [Example 4.38]
ASSAYED SYSTEM: VLA-4 (Homo sapiens, UniProt P05556+P13612)
RESULT: 500 to 2000 nM
